# credit: patent US9765056B2

Here the recorded IC50 is given for each entry.
# System: RS4;11 leukaemia tumour line
# EXPERIMENT: In vitro cytotoxicity, Microculture Tetrazolium Assay (MTT)
# Assay type: cell-based
# STATED CONDITIONS: Homo sapiens; RS4;11 cells, 48 hours exposure
# Protocol: The cytotoxicity studies were carried out on the RS4;11 leukaemia tumour line. The cells are distributed onto microplates and exposed to the test compounds for 48 hours. The cell viability is then quantified by a colorimetric assay, the Microculture Tetrazolium Assay (Cancer Res., 1987, 47, 939-942).
Structures can show the parent of a compound that is named as a salt.
# value in nM; strip the unit string

Solved entries (count: 4):
COMPOUND | IC50 [nM]
Cc1cc(C(=O)N(c2ccc(O)cc2)c2ccc3[nH]ccc3c2)cn1-c1cc(Cl)ccc1C(=O)N1Cc2ccccc2C[C@H]1CN1CCN(C)CC1 [Example 86] | 67.7
Cc1cc(C(=O)N(c2ccc(O)cc2)c2cccc(N3CCN(C)CC3)c2)cn1-c1cc2c(cc1C(=O)N1Cc3ccccc3C[C@H]1C)OCO2 [Example 112, hydrochloride] | 281
CN1CCN(C[C@@H]2Cc3ccccc3CN2C(=O)c2cc3c(cc2-n2cc(C(=O)N(c4ccccc4)c4ccc(O)cc4)c4ccccc42)OC(F)(F)O3)CC1 [Example 182] | 1850
NC[C@@H]1Cc2ccccc2CN1C(=O)c1cc(NC(=O)COc2ccccc2)ccc1-n1nc(C(=O)N(c2ccccc2)c2ccccc2)c2ccccc21 [Example 144] | 1380

Summary for this compound, CN1CCN(C[C@@H]2Cc3ccccc3CN2C(=O)c2cc3c(cc2-n2cc(C(=O)N(c4ccc(O)c(Cl)c4)c4ccc5[nH]ccc5c4)c4ccccc42)OCO3)CC1 [Example 82, hydrochloride] : IC50 is 373
